# Measurement target: human recombinant Btk (Homo sapiens)
# Sequence (Q06187 whole entry): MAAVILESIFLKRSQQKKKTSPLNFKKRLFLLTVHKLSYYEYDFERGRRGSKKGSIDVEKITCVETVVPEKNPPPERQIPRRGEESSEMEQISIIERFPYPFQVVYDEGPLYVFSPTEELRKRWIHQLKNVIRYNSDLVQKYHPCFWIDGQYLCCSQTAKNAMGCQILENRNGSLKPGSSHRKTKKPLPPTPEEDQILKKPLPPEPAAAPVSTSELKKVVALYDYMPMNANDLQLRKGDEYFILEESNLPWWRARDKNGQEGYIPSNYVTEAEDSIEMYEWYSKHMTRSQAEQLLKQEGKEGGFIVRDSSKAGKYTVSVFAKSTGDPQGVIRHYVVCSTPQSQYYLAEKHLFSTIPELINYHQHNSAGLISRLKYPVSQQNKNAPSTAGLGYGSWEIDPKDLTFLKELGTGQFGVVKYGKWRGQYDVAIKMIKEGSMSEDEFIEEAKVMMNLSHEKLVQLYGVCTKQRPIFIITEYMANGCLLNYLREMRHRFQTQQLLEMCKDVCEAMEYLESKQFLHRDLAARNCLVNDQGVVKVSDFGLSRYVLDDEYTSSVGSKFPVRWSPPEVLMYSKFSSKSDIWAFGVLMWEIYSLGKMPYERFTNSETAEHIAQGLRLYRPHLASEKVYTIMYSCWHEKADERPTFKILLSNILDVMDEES
# Test summary: Human Recombinant Btk Enzyme Assay
# Test settings: human recombinant Btk 1 nM, ATP 20 μM, 60 min at room temperature; read-out: IC50 for Inhibition of Btk
pIC50: −log10 of the molar value.
Quick rule: pIC50 of at least 8 means Condition met, below that means Condition not met.

// known answers, use as guide
>>> class_label("CC(C)(O)C1CCc2c([nH]c3c(C(N)=O)ccc(Br)c23)C1 (centres unmarked) [Example 73-1]")
"Condition not met"
>>> class_label("Cc1c(-c2ccc(C(N)=O)c3[nH]c4c(c23)CCC(C(C)(C)O)C4)cccc1-n1cnc2cccc(F)c2c1=O (centres unmarked) [Example 76-41]")
"Condition not met"

Task: Is reported pIC50 greater than or equal to 8 here: Cc1c(-c2ccc(C(N)=O)c3[nH]c4cc(C(C)(C)O)ccc4c23)cccc1N1CCc2cc(F)ccc2C1=O [Example 81-20]
Output: Condition met

Task: Same for Cc1c(NC(=O)c2nccn2C)cccc1-c1ccc(C(N)=O)c2[nH]c3cc(NC(=O)NC(C)C)ccc3c12 [Example 60-1]
Output: Condition not met

Task: And what about the molecule Cc1c(NC(=O)c2ccc(F)cc2)cccc1-c1ccc(C(N)=O)c2[nH]c3cc(NC4CCN(C)CC4)ccc3c12 [Example 61-2] ?
Output: Condition met

Task: Similarly, Cc1c(-c2ccc(C(N)=O)c3[nH]c4cc(C(O)CO)ccc4c23)cccc1-n1cnc2ccc(F)cc2c1=O (centres unmarked) [Example 70-13] ?
Output: Condition met

Task: Try Cc1ccc2c(c1)C(=O)N(c1cccc(-c3ccc(C(N)=O)c4[nH]c5cc(N6CCCC6=O)ccc5c34)c1C)C2 [Example 66-16] next.
Output: Condition met

Task: Also, Cc1c(NC(=O)c2nccs2)cccc1-c1ccc(C(N)=O)c2[nH]c3cc(N4CCN(C)CC4)ccc3c12 [Example 77-2] please.
Output: Condition met

Task: Lookup CC(=O)OCC1CCc2c([nH]c3c(C(N)=O)ccc(-c4cccc(N5C(=O)c6ccc(C(C)(C)C)cc6C5=O)c4C)c23)C1 (centres unmarked) [Example 31-3]
Output: Condition not met

Task: What would you report for Cc1ccc2c(c1)C(=O)N(c1cccc(-c3ccc(C(N)=O)c4[nH]c5cc(C(O)CO)ccc5c34)c1C)C2 (centres unmarked) [Example 70-11] ?
Output: Condition met
